molecular target: human FAAH (Homo sapiens); construct: host or cells: COS-7 cells, transient transfection (FuGENE 6); 13,000 g membrane fraction solubilised in 1% Triton X-100; experiment: Human FAAH biochemical inhibition assay (AMC arachidonoyl amide fluorescence); details: class given in each Example, read-out: Activity (Ki, inhibition of human FAAH)
Sequence (O00519 whole entry): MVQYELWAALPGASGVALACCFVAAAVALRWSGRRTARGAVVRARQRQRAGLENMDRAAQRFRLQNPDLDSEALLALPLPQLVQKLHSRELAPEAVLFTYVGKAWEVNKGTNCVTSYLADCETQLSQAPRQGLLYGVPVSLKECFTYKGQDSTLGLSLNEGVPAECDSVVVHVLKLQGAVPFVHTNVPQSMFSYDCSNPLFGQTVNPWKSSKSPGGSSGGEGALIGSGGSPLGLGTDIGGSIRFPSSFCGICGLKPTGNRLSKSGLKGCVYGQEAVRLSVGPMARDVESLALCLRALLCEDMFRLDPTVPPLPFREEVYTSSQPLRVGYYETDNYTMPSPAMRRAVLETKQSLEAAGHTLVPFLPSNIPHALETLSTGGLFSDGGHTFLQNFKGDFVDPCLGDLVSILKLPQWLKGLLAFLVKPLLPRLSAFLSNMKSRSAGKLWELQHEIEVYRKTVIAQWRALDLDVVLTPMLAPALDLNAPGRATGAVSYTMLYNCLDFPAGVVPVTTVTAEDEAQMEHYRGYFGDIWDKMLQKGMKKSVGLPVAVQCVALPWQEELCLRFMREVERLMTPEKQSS
PROPERTY_LABEL: Ki

COMPOUND | PROPERTY_LABEL | VALUE_OBSERVED
OB(O)c1ccc2cn(CCc3ccccc3)nc2c1 | Ki | ≤ 10 nM
CC(C)Cc1nnc(-c2ccccc2B(O)O)o1 | Ki | > 1000 nM
COC(=O)/C=C/c1ccsc1B(O)O | Ki | 100 to 1000 nM
CN(C)c1cccc(Oc2ccc3cc(B(O)O)ccc3n2)c1 | Ki | ≤ 10 nM
OB1ON=Cc2cc(OCCc3ccccc3)ccc21 | Ki | 10 to 100 nM
CCCCCc1nnc(-c2ccc(B(O)O)cc2Cl)o1 | Ki | ≤ 10 nM
OB(O)c1ccc2c(cnn2Cc2ccccc2)c1 | Ki | ≤ 10 nM
OB(O)c1ccc(-c2nnc(Cc3ccccc3)o2)s1 | Ki | 10 to 100 nM
CCCc1noc(-c2cc(OCCc3ccccc3)ccc2B(O)O)n1 | Ki | 10 to 100 nM
OB(O)c1ccc(-c2nnc(-c3cccc(C(F)(F)F)c3)s2)cc1 | Ki | ≤ 10 nM
OB(O)c1ccc(-n2cc(-c3ccccc3)cn2)cc1 | Ki | ≤ 10 nM
Cc1nc(Cc2nnc(-c3ccc(B(O)O)cc3)o2)cs1 | Ki | 10 to 100 nM
CCCCCC1(C)CC(c2ccc(B(O)O)cc2)=NO1 (stereo not drawn) | Ki | ≤ 10 nM
CC/C=C/c1cc(OCCc2ccccc2)ccc1B(O)O | Ki | 10 to 100 nM
CN(Cc1ccccc1)C(=O)/C=C/c1ccccc1B(O)O | Ki | 100 to 1000 nM
[O-]/[N+](=C\c1cc(OCc2ccccc2)ccc1B(O)O)Cc1ccccc1 | Ki | 100 to 1000 nM
OB(O)c1ccc2cc(Oc3ccccc3)ccc2c1 | Ki | ≤ 10 nM
COc1ccc2c(c1)B(O)N(Cc1ccccc1)N=C2 | Ki | > 1000 nM
OB1c2cscc2C=NN1Cc1ccccc1 | Ki | > 1000 nM
OB(O)c1ccc(-c2nc(CCc3ccccc3)c(-c3ccccc3)s2)cc1 | Ki | > 1000 nM
OB(O)c1ccc2nc(CCCC(F)(F)F)oc2c1 | Ki | ≤ 10 nM
